- system: Replicase polyprotein 1ab (Severe acute respiratory syndrome coronavirus 2, UniProt P0DTD1)
- assay summary: Inhibition of SARS-CoV-2 RdRp transfected in human HEK293T cells cotransfected with Cov-Gluc by Gaussia luciferase reporter gene method
- Format: cell-based
- condition description: read-out: IC50
pIC50: −log10 of the molar value.
Please note: criterion met applies when pIC50 is 5 or greater, and criterion not met applies otherwise.

Field: example entries. Status: answers known.
* C[C@@H](NC(=O)CSc1c[nH]c2ccccc12)c1ccccc1 | criterion met
* Cn1cc(SCC(=O)NCc2ccccc2)c2ccccc21 | criterion not met
* COc1ccccc1CNC(=O)CSc1c[nH]c2c(Br)cccc12 | criterion met

Query: Entry "CN(Cc1ccccc1)C(=O)CSc1c[nH]c2c(Br)cccc12" : is its pIC50 no less than 5?
Reply: criterion not met

Query: Quick check: does "O=C(CSc1c[nH]c2c(Br)cccc12)NCc1ccc(Cl)c(Cl)c1" have pIC50 greater than or equal to 5?
Reply: criterion met

----------
- system: Replicase polyprotein 1ab (Severe acute respiratory syndrome coronavirus 2)
- assay summary: Inhibition of SARS-CoV-2 RdRp transfected in human HEK293T cells cotransfected with Cov-Gluc by Gaussia luciferase reporter gene method
- Assay type: cell-based
- condition description: read-out: IC50
Note to self: use met only for IC50 readings below 10 µM; a reading exactly at 10 µM still gets not met.

Solved cases (2 shown):
- Cn1cc(SCC(=O)NCc2ccc(Cl)c(Cl)c2)c2ccccc21: met
- CN(C)CCOc1ccc(CNC(=O)CSc2c[nH]c3ccccc23)cc1: met

API: the following record is the query input.
Query: Quick check: IC50 of "COc1ccccc1CNC(=O)CSc1c[nH]c2ccc(Br)cc12" under 10 µM?
Reply: not met
